pIC50: −log10 of the molar value.
Header: pIC50 / cGMP-specific 3',5'-cyclic phosphodiesterase (Homo sapiens, UniProt O76074) / multiple publications
REPORTED PROPERTY: pIC50

{"COMPOUND": "Cc1nc2c(OCc3c(F)cccc3F)cccn2c1-c1nc(NC[C@H](O)CO)c2c(n1)NC(=O)C2(C)C", "pIC50": 8.41}
{"COMPOUND": "CC1(C)C(=O)Nc2nc(-c3nn(Cc4ccccc4F)c4ncccc34)nc(C(=O)Nc3nccs3)c21", "pIC50": 7.34}

(1) Cc1cccc(Cn2nc(-c3nnc4c(n3)NC(=O)C4(C)C)c3cc(F)cnc32)c1F
(2) Cc1nc2c(OCc3c(F)cccc3F)cccn2c1-c1nc(NCCC(F)(F)F)c2c(n1)NC(=O)C2(C)C
**Q:** Short answer wanted: higher pIC50, 1 or 2 ? Please respond with the label that marks your chosen entry.
**A:** 2

(A) CC1(C)C(=O)Nc2nc(-c3nn(Cc4ccccc4F)c4c3CCC4)nc(NCCC(F)(F)F)c21
(B) Cc1ccc2c(-c3nnc4c(n3)NC(=O)C43CC3)nn(Cc3cccc(F)c3F)c2n1
(C) CC1(C)C(=O)Nc2nc(-c3nn(Cc4ccccc4F)c4ncccc34)nc(C(=O)NCc3ccccc3)c21
(D) Cc1nc2c(OCc3c(F)cccc3F)cccn2c1-c1nc(NCC(N)c2ccc(F)c(F)c2)c2c(n1)NC(=O)C2(C)C (single isomer, unassigned; ent-4)
**Q:** Put the entries in order of pIC50, starting with the largest number. Please list the labels according to the requested order.
**A:** B, C, D, A

====

Below, IC50 values reported for UniProt:O76074 across several publications.
REPORTED PROPERTY: IC50 (nM)

Use the examples below as a reference point.
{"COMPOUND": "COCCNc1nc(-c2nn(Cc3ccccc3F)c3ncccc23)nc2c1C(C)(C)C(=O)N2", "RECORDED VALUE": 34}
{"COMPOUND": "CC1(C)C(=O)Nc2nc(-c3nn(Cc4ncccc4F)c4ncc(F)cc34)nc(C(=O)NC(C3CC3)C3CC3)c21", "RECORDED VALUE": 77}
{"COMPOUND": "Cc1nc2c(cc1F)c(-c1nnc3c(n1)NC(=O)C3(C)C)nn2Cc1ccc(F)cc1F", "RECORDED VALUE": 21}
{"COMPOUND": "CC1(C)C(=O)Nc2nc(-c3nn(Cc4ccccc4F)c4ncccc34)nc(CCCC(F)(F)F)c21", "RECORDED VALUE": 130}

(P) CCOCCCNC(=O)c1nc(-c2nn(Cc3ccccc3F)c3ncccc23)nc2c1C(C)(C)C(=O)N2
(Q) Cc1nc2c(OCc3c(F)cccc3F)cccn2c1-c1nc2c(c(C(=O)NCC(C)(C)O)n1)C(C)(C)C(=O)N2
(R) CCOC(=O)C1C(=O)Nc2nc(-c3nn(Cc4ccccc4F)c4ncccc34)nnc21 (racemic)
(S) CCCc1nc(-c2nn(Cc3ccccc3F)c3ncccc23)nc2c1C(C)(C)C(=O)N2
(T) CCOCCCNc1nc(-c2nn(Cc3ccccc3F)c3ncccc23)nc2c1C(C)(C)C(=O)N2
**Q:** Sort ascending by IC50. Provide the labels, sequenced as the question asks.
**A:** Q, P, T, S, R
